meta.source: patent US9216964B2

# System: hedgehog signaling pathway
# Measurement description: Gli-Luc Reporter Assay for Hh Pathway Inhibition (TMHh-12 cells, pTA-8×Gli-Luc reporter)
# Type: cell-based, Mouse
# Test parameters: Mus musculus, TMHh12, enzymatic and cellular assays for the inhibition of hedgehog signaling pathways; read-out: IC50 Ranges
Endpoint name: IC50

**Q:** So what does the record say about IC50 for "Clc1ccc(Nc2ccc3c(c2)CN(C2CCOCC2)CC3)cc1-c1nc(-c2ccccc2)c[nH]1" ?
**A:** 10 to 100 nM

**Q:** So what does the record say about IC50 for "CC(C)N1CCc2c(cccc2Nc2ccc(Cl)c(-c3ncc(-c4ccccc4)[nH]3)c2)C1" ?
**A:** 1 to 10 nM

**Q:** So what does the record say about IC50 for "O=C(O)C1(C(=O)N2CCc3c(cccc3Nc3ccc(Cl)c(-c4ncc(-c5ccccc5)[nH]4)c3)C2)CCC1" ?
**A:** 1 to 10 nM

**Q:** So what does the record say about IC50 for COc1cnc(-c2cc(Nc3cccc4c3CCN(C3CCS(=O)(=O)C3)C4)ccc2C)cn1 (stereo not drawn) ?
**A:** 1 to 10 nM

**Q:** So what does the record say about IC50 for "Cc1ccc(Nc2cccc3c2CCN(S(C)(=O)=O)C3)cc1-c1ncc(-c2cnc(N(C)C)nc2)[nH]1" ?
**A:** 1 to 10 nM

**Q:** So what does the record say about IC50 for "Cc1ccc(-c2nc(Nc3cccc4c3CCN(S(C)(=O)=O)C4)ccc2Cl)nc1" ?
**A:** 0.001 to 1 nM

**Q:** So what does the record say about IC50 for "CCOc1cnc(-c2nc(Nc3cccc4c3CCN(S(=O)(=O)CC)C4)ccc2C)cn1" ?
**A:** 1 to 10 nM

**Q:** So what does the record say about IC50 for "Cc1ccc(Nc2cccc3c2CCN(S(C)(=O)=O)C3)cc1COc1ccccn1" ?
**A:** 100 to 1000 nM

**Q:** So what does the record say about IC50 for "Cc1ccc(Nc2cccc3c2CCN(S(C)(=O)=O)C3)cc1-c1ncc(-c2cccnc2)[nH]1" ?
**A:** 0.001 to 1 nM

**Q:** So what does the record say about IC50 for "Cc1ccc(Nc2cccc3c2CCN(S(C)(=O)=O)C3)cc1C(=O)Nc1ccc(F)cc1" ?
**A:** 0.001 to 1 nM

**Q:** So what does the record say about IC50 for "Cc1ccc(-c2cc(Nc3cccc4c3CCN(CC(C)(C)C)C4)ccc2C)nc1" ?
**A:** 1 to 10 nM

**Q:** So what does the record say about IC50 for Cc1cnc(-c2cc(Nc3cccc4c3CCN(C3CCS(=O)(=O)C3)C4)ccc2C)nc1 (stereo not drawn) ?
**A:** 10 to 100 nM

**Q:** So what does the record say about IC50 for "Clc1ccc(Nc2cccc3c2CCN(C2CCCCCC2)C3)cc1-c1ncc(-c2ccccc2)[nH]1" ?
**A:** 1 to 10 nM

**Q:** So what does the record say about IC50 for "Cc1ccc(-c2cc(Nc3cccc4c3CCN(C[C@H](O)CO)C4)ccc2C)nn1" ?
**A:** 100 to 1000 nM

**Q:** So what does the record say about IC50 for "CCS(=O)(=O)N1CCc2c(cccc2Nc2ccc(C)c(-c3ccc(OC)nn3)n2)C1" ?
**A:** 1 to 10 nM

**Q:** So what does the record say about IC50 for "Cc1nc(-c2ccc(-c3cc(Nc4cccc5c4CCN(S(C)(=O)=O)C5)ccc3C)cc2)cs1" ?
**A:** 10 to 100 nM

**Q:** So what does the record say about IC50 for Cc1ccc(Nc2cccc3c2CCN(S(C)(=O)=O)C3)cc1-c1ccc(C(=O)NCC(O)CO)cc1 (stereo not drawn) ?
**A:** 1000 to 10000 nM

**Q:** So what does the record say about IC50 for "Cc1ccc(Nc2cccc3c2CCN(CCS(C)(=O)=O)C3)cc1-c1ncccc1F" ?
**A:** 1 to 10 nM

---

# System: hedgehog signaling pathway
# Measurement description: Gli-Luc Reporter Assay for Hh Pathway Inhibition (TMHh-12 cells, pTA-8×Gli-Luc reporter)
# Assay type: cell-based, Mouse
# Test parameters: Mus musculus, TMHh12, enzymatic and cellular assays for the inhibition of hedgehog signaling pathways; read-out: IC50 Ranges
Exercise: for every item that follows, state its recorded IC50.

**Q:** So what does the record say about IC50 for Cc1ccc(Nc2cccc3c2CCN(S(C)(=O)=O)C3)cc1-c1ccc(CN(C)C)cc1 [Compound 108] ?
**A:** 100 to 1000 nM

**Q:** So what does the record say about IC50 for Cc1ccc(Nc2cccc3c2CCN(S(C)(=O)=O)C3)cc1-c1ccc(CC#N)cc1 [Compound 139] ?
**A:** 100 to 1000 nM

**Q:** So what does the record say about IC50 for O=C(O)CCN1CCc2c(Nc3ccc(Cl)c(-c4nc(-c5ccccc5)c[nH]4)c3)cccc2C1=O [Compound 50] ?
**A:** 10 to 100 nM

**Q:** So what does the record say about IC50 for OC[C@H](O)[C@@H](O)CN1CCc2c(cccc2Nc2ccc(Cl)c(-c3ncc(-c4ccccc4)[nH]3)c2)C1 [Compound 48] ?
**A:** 1 to 10 nM

**Q:** So what does the record say about IC50 for CCS(=O)(=O)CCN1CCc2c(cccc2Nc2ccc(C)c(-c3ccc(F)cn3)c2)C1 [Compound 281] ?
**A:** 1 to 10 nM

**Q:** So what does the record say about IC50 for Cc1cc(C#N)ccc1-c1cc(Nc2cccc3c2CCN(S(C)(=O)=O)C3)ccc1C [Compound 163] ?
**A:** 10 to 100 nM

**Q:** So what does the record say about IC50 for Cc1ccc(Nc2cccc3c2CCN(S(C)(=O)=O)C3)cc1-c1ccc(C(=O)NCC(C)O)cc1 (centres unmarked) [Compound 148] ?
**A:** 100 to 1000 nM

**Q:** So what does the record say about IC50 for Cc1ccc(Nc2cccc3c2CCN(S(C)(=O)=O)C3)cc1OCc1ccc(C#N)cc1 [Compound 166] ?
**A:** 10 to 100 nM

---

# System: hedgehog signaling pathway
# Measurement description: Gli-Luc Reporter Assay for Hh Pathway Inhibition (TMHh-12 cells, pTA-8×Gli-Luc reporter)
# Format: cell-based, Mouse
# Test parameters: Mus musculus, TMHh12, enzymatic and cellular assays for the inhibition of hedgehog signaling pathways; read-out: IC50 Ranges
Endpoint name: IC50

**Q:** Missing value: IC50, hedgehog signaling pathway, entry Cc1ccc(-c2cc(Nc3cccc4c3CCN(S(C)(=O)=O)C4)ccc2C)nc1 [Compound 169] . Fill in?
**A:** 0.001 to 1 nM

**Q:** Missing value: IC50, hedgehog signaling pathway, entry Cc1ccc(Nc2cccc3c2CCN(CC(C)(C)F)C3)cc1-c1ccc(F)cn1 [Compound 182] . Fill in?
**A:** 1 to 10 nM

**Q:** Missing value: IC50, hedgehog signaling pathway, entry O=C(O)CC(=O)N1CCc2c(cccc2Nc2ccc(Cl)c(-c3nc(-c4ccccc4)c[nH]3)c2)C1 [Compound 44] . Fill in?
**A:** 1 to 10 nM

**Q:** Missing value: IC50, hedgehog signaling pathway, entry Cc1ccc(Nc2cccc3c2CCN(S(C)(=O)=O)C3)cc1-c1nc2ncncc2[nH]1 [Compound 63] . Fill in?
**A:** 10 to 100 nM

**Q:** Missing value: IC50, hedgehog signaling pathway, entry Cc1ccc(Nc2cccc3c2CCN(S(C)(=O)=O)C3)cc1-c1ccc(-c2ccccc2)cc1 [Compound 109] . Fill in?
**A:** 100 to 1000 nM

**Q:** Missing value: IC50, hedgehog signaling pathway, entry CC(=O)c1ccc(-c2cc(Nc3cccc4c3CCN(S(C)(=O)=O)C4)ccc2C)cc1 [Compound 114] . Fill in?
**A:** 100 to 1000 nM

**Q:** Missing value: IC50, hedgehog signaling pathway, entry CNC(=O)c1cccc(-c2cc(Nc3cccc4c3CCN(S(C)(=O)=O)C4)ccc2C)c1 [Compound 135] . Fill in?
**A:** 1000 to 10000 nM

**Q:** Missing value: IC50, hedgehog signaling pathway, entry CS(=O)(=O)N1CCc2c(cccc2Nc2ccc(C#N)c(-c3ccc(C#N)cc3)c2)C1 [Compound 155] . Fill in?
**A:** 100 to 1000 nM

**Q:** Missing value: IC50, hedgehog signaling pathway, entry Cc1ccc(Nc2nccc3c2CCN(S(C)(=O)=O)C3)cc1-c1ccc(C#N)cc1 [Compound 125] . Fill in?
**A:** 10 to 100 nM

**Q:** Missing value: IC50, hedgehog signaling pathway, entry CCOc1ccc(-c2nc(Nc3cccc4c3CCN(C3CCS(=O)(=O)C3)C4)ccc2C)nn1 (centres unmarked) [Compound 334] . Fill in?
**A:** 10 to 100 nM

**Q:** Missing value: IC50, hedgehog signaling pathway, entry Cc1ccc(Nc2cccc3c2CCN(CC(F)(F)CO)C3)cc1-c1ccc(C#N)cn1 [Compound 211] . Fill in?
**A:** 0.001 to 1 nM

**Q:** Missing value: IC50, hedgehog signaling pathway, entry Cc1ccc(Nc2cccc3c2CCN(C2CCS(=O)(=O)C2)C3)cc1-c1ccccn1 (centres unmarked) [Compound 265] . Fill in?
**A:** 0.001 to 1 nM

**Q:** Missing value: IC50, hedgehog signaling pathway, entry COc1ccc(-c2cc(Nc3cccc4c3CCN(S(C)(=O)=O)C4)ccc2C)cc1 [Compound 99] . Fill in?
**A:** 10 to 100 nM

**Q:** Missing value: IC50, hedgehog signaling pathway, entry Cc1ccc(Nc2cccc3c2CCN(S(C)(=O)=O)C3)cc1-c1ccc(CO)cc1 [Compound 156] . Fill in?
**A:** 100 to 1000 nM

**Q:** Missing value: IC50, hedgehog signaling pathway, entry C[C@@H](O)C(=O)N1CCc2c(cccc2Nc2ccc(Cl)c(-c3ncc(-c4ccccc4)[nH]3)c2)C1 [Compound 8] . Fill in?
**A:** 0.001 to 1 nM

**Q:** Missing value: IC50, hedgehog signaling pathway, entry CS(=O)(=O)N1CCc2c(cccc2Nc2ccc(F)c(-c3ccc(C#N)cc3)c2)C1 [Compound 131] . Fill in?
**A:** 10 to 100 nM

**Q:** Missing value: IC50, hedgehog signaling pathway, entry O=C(O)C(=O)N1CCc2c(cccc2Nc2ccc(Cl)c(-c3ncc(-c4ccccc4)[nH]3)c2)C1 [Compound 83] . Fill in?
**A:** 10 to 100 nM

**Q:** Missing value: IC50, hedgehog signaling pathway, entry O=C(O)CN1CCc2c(cccc2Nc2ccc(Cl)c(-c3nc(-c4ccccc4)c[nH]3)c2)C1 [Compound 53] . Fill in?
**A:** 10 to 100 nM

**Q:** Missing value: IC50, hedgehog signaling pathway, entry NS(=O)(=O)N1CCc2c(cccc2Nc2ccc(Cl)c(-c3ncc(-c4ccccc4)[nH]3)c2)C1 [Compound 13] . Fill in?
**A:** 1 to 10 nM

**Q:** Missing value: IC50, hedgehog signaling pathway, entry Cc1ccc(Nc2cccc3c2CCN(S(C)(=O)=O)C3)cc1-c1ccc(C(=O)N(CCO)CCO)cc1 [Compound 147] . Fill in?
**A:** 1000 to 10000 nM

**Q:** Missing value: IC50, hedgehog signaling pathway, entry Cc1ccc(-c2cc(Nc3cccc4c3CCN(CCS(C)(=O)=O)C4)ccc2C)nc1 [Compound 223] . Fill in?
**A:** 0.001 to 1 nM

**Q:** Missing value: IC50, hedgehog signaling pathway, entry CC(=O)N1CCC(N2CCc3c(cccc3Nc3ccc(Cl)c(-c4ncc(-c5ccccc5)[nH]4)c3)C2)CC1 [Compound 11] . Fill in?
**A:** 0.001 to 1 nM

**Q:** Missing value: IC50, hedgehog signaling pathway, entry Cc1ccc(Nc2cccc3c2CCN(CC(C)(C)O)C3)cc1-c1ccc(C#N)cn1 [Compound 199] . Fill in?
**A:** 1 to 10 nM

**Q:** Missing value: IC50, hedgehog signaling pathway, entry Cc1ccc(Nc2nccc3c2CCN(S(C)(=O)=O)C3)cc1-c1cc2ccccc2cn1 [Compound 331] . Fill in?
**A:** 10 to 100 nM

**Q:** Missing value: IC50, hedgehog signaling pathway, entry CCOc1cnc(-c2nc(Nc3cccc4c3CCN(S(C)(=O)=O)C4)ccc2C)cn1 [Compound 333] . Fill in?
**A:** 10 to 100 nM

**Q:** Missing value: IC50, hedgehog signaling pathway, entry CC(C)(C)OC(=O)N1CCc2c(cccc2Nc2ccc(Cl)c(-c3ncc(-c4ccccc4)[nH]3)c2)C1 [Compound 45] . Fill in?
**A:** 1 to 10 nM

**Q:** Missing value: IC50, hedgehog signaling pathway, entry CC(C)(CO)C(=O)N1CCc2c(cccc2Nc2ccc(Cl)c(-c3ncc(-c4ccccc4)[nH]3)c2)C1 [Compound 14] . Fill in?
**A:** 0.001 to 1 nM

**Q:** Missing value: IC50, hedgehog signaling pathway, entry Cc1ccc(Nc2cccc3c2CCN(S(C)(=O)=O)C3)cc1-c1cc2ccccc2n1C [Compound 152] . Fill in?
**A:** 10 to 100 nM

**Q:** Missing value: IC50, hedgehog signaling pathway, entry Cc1ccc(Nc2cccc3c2CCN(CCS(C)(=O)=O)C3)cc1-c1ccccn1 [Compound 262] . Fill in?
**A:** 1 to 10 nM

**Q:** Missing value: IC50, hedgehog signaling pathway, entry COc1ccnc(-c2cc(Nc3cccc4c3CCN(S(C)(=O)=O)C4)ccc2C)c1 [Compound 230] . Fill in?
**A:** 0.001 to 1 nM

**Q:** Missing value: IC50, hedgehog signaling pathway, entry Cc1ccc(-c2cc(Nc3nccc4c3CCN(S(C)(=O)=O)C4)ccc2C)nc1 [Compound 236] . Fill in?
**A:** 10 to 100 nM

**Q:** Missing value: IC50, hedgehog signaling pathway, entry Cc1ccc(Nc2cccc3c2CCN(S(C)(=O)=O)C3)cc1-c1nc2cnc(N(C)C)cc2[nH]1 [Compound 103] . Fill in?
**A:** 10 to 100 nM
